TESTED SYSTEM: T1, IL-1β (UniProt P01584 117-269)
T1 construct: Antigen immobilised on the Biacore chip
PROCEDURE TEXT: Biacore, periplasmic extract
OUTCOME MEASURE: fold difference in affinity vs original
# do not omit the unit; it follows the number

# count of solved cases: 2
{"BINDER": "XPA23 light chain T52R (Fab, V domains shown) VH: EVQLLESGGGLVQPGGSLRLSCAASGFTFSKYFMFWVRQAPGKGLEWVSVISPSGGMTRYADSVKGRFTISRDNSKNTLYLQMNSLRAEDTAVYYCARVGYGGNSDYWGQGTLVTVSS VL: DIQMTQSPSSVSASVGDRLTIICRASQDINRWLAWYQQTPGNAPKLLIHSARSLQSGVPSRFSGSGSGTDFTLTINSLQPEDFATYYCQQADSFPLTFGGGTKVEIK", "fold difference in affinity vs original": "3.37 fold"}
{"BINDER": "XPA23 light chain A51L (Fab, V domains shown) VH: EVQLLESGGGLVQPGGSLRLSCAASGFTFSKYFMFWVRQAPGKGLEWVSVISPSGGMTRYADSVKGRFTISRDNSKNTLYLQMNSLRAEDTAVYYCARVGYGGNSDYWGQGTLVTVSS VL: DIQMTQSPSSVSASVGDRLTIICRASQDINRWLAWYQQTPGNAPKLLIHSLTSLQSGVPSRFSGSGSGTDFTLTINSLQPEDFATYYCQQADSFPLTFGGGTKVEIK", "fold difference in affinity vs original": "0.16 fold"}

What value of fold difference in affinity vs original has been recorded for this entry: XPA23 light chain D28Y (Fab, V domains shown) VH: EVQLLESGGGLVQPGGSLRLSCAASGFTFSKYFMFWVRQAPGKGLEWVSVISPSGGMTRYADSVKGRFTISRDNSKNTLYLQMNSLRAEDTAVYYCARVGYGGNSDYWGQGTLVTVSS VL: DIQMTQSPSSVSASVGDRLTIICRASQYINRWLAWYQQTPGNAPKLLIHSATSLQSGVPSRFSGSGSGTDFTLTINSLQPEDFATYYCQQADSFPLTFGGGTKVEIK
1.45 fold
